Molecular target: FXR (Homo sapiens, UniProt Q96RI1)
Sequence (Q96RI1 whole entry): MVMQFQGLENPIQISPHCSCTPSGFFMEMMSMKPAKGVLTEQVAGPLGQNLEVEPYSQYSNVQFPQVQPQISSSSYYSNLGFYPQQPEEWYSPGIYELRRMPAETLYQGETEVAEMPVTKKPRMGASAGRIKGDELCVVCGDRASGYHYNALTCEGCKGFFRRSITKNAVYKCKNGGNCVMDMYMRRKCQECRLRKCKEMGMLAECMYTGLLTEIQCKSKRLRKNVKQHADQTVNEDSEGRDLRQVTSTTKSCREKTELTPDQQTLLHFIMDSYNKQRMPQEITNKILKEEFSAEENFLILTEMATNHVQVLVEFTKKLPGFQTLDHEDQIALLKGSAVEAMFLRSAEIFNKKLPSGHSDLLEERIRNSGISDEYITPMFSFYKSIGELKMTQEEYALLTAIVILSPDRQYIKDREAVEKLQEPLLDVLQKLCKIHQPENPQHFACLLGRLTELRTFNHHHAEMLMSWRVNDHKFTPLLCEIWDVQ
Assay: FXR Transactivation Assay (pBIND-FXR / pGL4.35 luciferase reporter in HEK293T)
Details: HEK293T cells
readout_name: EC50

Ask | Provide one value: measured EC50 of CC(C)n1nc(C(=O)O)cc1C1CC1(C#N)c1ccc(OCc2c(-c3c(Cl)cccc3Cl)noc2C2CC2)cc1Cl (stereo not shown) [VII-07]
Reply | 401 to 5000 nM

Ask | Provide one value: measured EC50 of CC(C)c1onc(-c2c(Cl)cccc2Cl)c1COc1ccc(C2CC2(C)c2cc(C(=O)O)nn2C(C)C)c(Cl)c1 (stereo not shown) [IV-20]
Reply | 101 to 400 nM

Ask | Provide one value: measured EC50 of CC(C)c1onc(-c2c(Cl)cccc2Cl)c1COc1ccc(C2CC2(C)c2ccc(C(=O)O)cc2)c(Cl)c1 (stereo not shown) [IV-01]
Reply | 401 to 5000 nM

Ask | Provide one value: measured EC50 of N#CC1(c2ccc(OCc3c(-c4c(Cl)cccc4Cl)noc3C3CC3)cc2Cl)CC1c1cccc(C(=O)O)c1 (single isomer, unassigned) [VII-03-1]
Reply | 101 to 400 nM

Ask | Provide one value: measured EC50 of N#CC1(c2ccc(OCc3c(-c4c(Cl)cccc4Cl)noc3C3CC3)cc2Cl)CC1c1cncc(C(=O)O)c1 (stereo not shown) [VII-05]
Reply | 401 to 5000 nM

Ask | Provide one value: measured EC50 of CC1(c2ccc(OCc3c(-c4c(Cl)cccc4Cl)noc3C3CC3)cc2Cl)CC1c1nc2c(F)cc(C(=O)O)cc2s1 (stereo not shown) [VI-09]
Reply | 10 to 100 nM

Ask | Provide one value: measured EC50 of N#CC1(c2ccc(OCc3c(-c4c(Cl)cccc4Cl)noc3C3CC3)cc2Cl)CC1c1cccc(C(=O)O)c1 (single isomer, unassigned) [VII-03-2]
Reply | 10 to 100 nM

Ask | Provide one value: measured EC50 of CC(C)c1onc(-c2c(Cl)cccc2Cl)c1COc1ccc(C2(C)CC2c2nc3c(F)cc(C(=O)O)cc3s2)c(Cl)c1 (stereo not shown) [VI-08]
Reply | 10 to 100 nM

Ask | Provide one value: measured EC50 of N#CC1(c2cncc(C(=O)O)c2)CC1c1ccc(OCc2c(-c3c(Cl)cccc3Cl)noc2C2CC2)cc1Cl (stereo not shown) [Compound V-04]
Reply | 401 to 5000 nM

Ask | Provide one value: measured EC50 of CC(C)c1onc(-c2c(Cl)cccc2Cl)c1COc1ccc(C2CC2(C#N)c2cccc(C(=O)O)c2)c(Cl)c1 (stereo not shown) [Compound V-02]
Reply | 101 to 400 nM

Ask | Provide one value: measured EC50 of CC1(c2ccc(OCc3c(-c4c(Cl)cccc4Cl)noc3C3CC3)cc2Cl)CC1c1cncc(C(=O)O)c1 (stereo not shown) [VI-05]
Reply | 10 to 100 nM

Ask | Provide one value: measured EC50 of CC(C)c1onc(-c2c(Cl)cccc2Cl)c1COc1ccc(C2(C)CC2c2nc3ccc(C(=O)O)cc3s2)c(Cl)c1 (stereo not shown) [VI-11]
Reply | 10 to 100 nM

Ask | Provide one value: measured EC50 of Cc1cc(C(=O)O)cc(C2CC2(C#N)c2ccc(OCc3c(-c4c(Cl)cccc4Cl)noc3C3CC3)cc2Cl)c1 (stereo not shown) [VII-10]
Reply | 10 to 100 nM

Ask | Provide one value: measured EC50 of CC(C)c1onc(-c2c(Cl)cccc2Cl)c1COc1ccc(C2(C#N)CC2c2cccc(C(=O)O)c2)c(Cl)c1 (stereo not shown) [VII-02]
Reply | 101 to 400 nM

Ask | Provide one value: measured EC50 of CC(C)c1onc(-c2c(Cl)cccc2Cl)c1COc1ccc(C2CC2(C)c2cncc(C(=O)O)c2)c(Cl)c1 (single isomer, unassigned) [IV-05-1]
Reply | 10 to 100 nM

Ask | Provide one value: measured EC50 of CC(C)c1onc(-c2c(Cl)cccc2Cl)c1COc1ccc(C2(C#N)CC2c2ccc(C(=O)O)cc2)c(Cl)c1 (stereo not shown) [VII-01]
Reply | 401 to 5000 nM

Ask | Provide one value: measured EC50 of CC1(c2ccc(OCc3c(-c4c(Cl)cccc4Cl)noc3C3CC3)cc2Cl)CC1c1ccnc(C(=O)O)c1 (stereo not shown) [VI-06]
Reply | 10 to 100 nM

Ask | Provide one value: measured EC50 of COc1ccc(C(=O)O)cc1C1CC1(C#N)c1ccc(OCc2c(-c3c(Cl)cccc3Cl)noc2C2CC2)cc1Cl (stereo not shown) [VII-09]
Reply | 101 to 400 nM

Ask | Provide one value: measured EC50 of CC1(c2cncc(C(=O)O)c2)CC1c1ccc(OCc2c(-c3c(Cl)cccc3Cl)noc2C2CC2)cc1Cl (stereo not shown) [IV-06]
Reply | 10 to 100 nM

Ask | Provide one value: measured EC50 of CC1(c2cccc(C(=O)O)c2)CC1c1ccc(OCc2c(-c3c(Cl)cncc3Cl)noc2C2CC2)cc1Cl (stereo not shown) [IV-04]
Reply | 101 to 400 nM

Ask | Provide one value: measured EC50 of N#CC1(c2ccc(OCc3c(-c4c(Cl)cccc4Cl)noc3C3CC3)cc2Cl)CC1c1cccc(C(=O)O)c1 (stereo not shown) [VII-03]
Reply | 10 to 100 nM

Ask | Provide one value: measured EC50 of CC1(c2ccc(OCc3c(-c4c(Cl)cccc4Cl)noc3C3CC3)cc2Cl)CC1c1ncc(C(=O)O)s1 (stereo not shown) [VI-13]
Reply | 10 to 100 nM

Ask | Provide one value: measured EC50 of CC1(c2cncc(C(=O)O)c2)CC1c1ccc(OCc2c(-c3ccccc3OC(F)F)noc2C2CC2)cc1Cl (stereo not shown) [IV-10]
Reply | 101 to 400 nM

Ask | Provide one value: measured EC50 of CC1(c2ccc(OCc3c(-c4c(Cl)cccc4Cl)noc3C3CC3)cc2Cl)CC1c1cccc(C(=O)O)c1 (stereo not shown) [VI-03]
Reply | 10 to 100 nM

Ask | Provide one value: measured EC50 of CC1(c2nc3ccc(C(=O)O)cc3s2)CC1c1ccc(OCc2c(-c3c(Cl)cccc3Cl)noc2C2CC2)cc1Cl (stereo not shown) [IV-17]
Reply | 101 to 400 nM

Ask | Provide one value: measured EC50 of CC1(c2cccc(C(=O)O)c2)CC1c1ccc(OCc2c(-c3c(Cl)cccc3Cl)noc2C2CC2)cc1Cl (stereo not shown) [IV-03]
Reply | 101 to 400 nM

Ask | Provide one value: measured EC50 of CC(C)c1onc(-c2c(Cl)cccc2Cl)c1COc1ccc(C2CC2(C)c2cncc(C(=O)O)c2)c(Cl)c1 (single isomer, unassigned) [IV-05-2]
Reply | 101 to 400 nM

Ask | Provide one value: measured EC50 of CC(C)c1onc(-c2c(Cl)cccc2Cl)c1COc1ccc(C2(C)CC2c2cncc(C(=O)O)c2)c(Cl)c1 (stereo not shown) [VI-04]
Reply | 10 to 100 nM
